# assay system: Nuclear receptor coactivator 1 (Homo sapiens) (UniProt Q15788)
# Sequence (Q15788 whole entry, looked up): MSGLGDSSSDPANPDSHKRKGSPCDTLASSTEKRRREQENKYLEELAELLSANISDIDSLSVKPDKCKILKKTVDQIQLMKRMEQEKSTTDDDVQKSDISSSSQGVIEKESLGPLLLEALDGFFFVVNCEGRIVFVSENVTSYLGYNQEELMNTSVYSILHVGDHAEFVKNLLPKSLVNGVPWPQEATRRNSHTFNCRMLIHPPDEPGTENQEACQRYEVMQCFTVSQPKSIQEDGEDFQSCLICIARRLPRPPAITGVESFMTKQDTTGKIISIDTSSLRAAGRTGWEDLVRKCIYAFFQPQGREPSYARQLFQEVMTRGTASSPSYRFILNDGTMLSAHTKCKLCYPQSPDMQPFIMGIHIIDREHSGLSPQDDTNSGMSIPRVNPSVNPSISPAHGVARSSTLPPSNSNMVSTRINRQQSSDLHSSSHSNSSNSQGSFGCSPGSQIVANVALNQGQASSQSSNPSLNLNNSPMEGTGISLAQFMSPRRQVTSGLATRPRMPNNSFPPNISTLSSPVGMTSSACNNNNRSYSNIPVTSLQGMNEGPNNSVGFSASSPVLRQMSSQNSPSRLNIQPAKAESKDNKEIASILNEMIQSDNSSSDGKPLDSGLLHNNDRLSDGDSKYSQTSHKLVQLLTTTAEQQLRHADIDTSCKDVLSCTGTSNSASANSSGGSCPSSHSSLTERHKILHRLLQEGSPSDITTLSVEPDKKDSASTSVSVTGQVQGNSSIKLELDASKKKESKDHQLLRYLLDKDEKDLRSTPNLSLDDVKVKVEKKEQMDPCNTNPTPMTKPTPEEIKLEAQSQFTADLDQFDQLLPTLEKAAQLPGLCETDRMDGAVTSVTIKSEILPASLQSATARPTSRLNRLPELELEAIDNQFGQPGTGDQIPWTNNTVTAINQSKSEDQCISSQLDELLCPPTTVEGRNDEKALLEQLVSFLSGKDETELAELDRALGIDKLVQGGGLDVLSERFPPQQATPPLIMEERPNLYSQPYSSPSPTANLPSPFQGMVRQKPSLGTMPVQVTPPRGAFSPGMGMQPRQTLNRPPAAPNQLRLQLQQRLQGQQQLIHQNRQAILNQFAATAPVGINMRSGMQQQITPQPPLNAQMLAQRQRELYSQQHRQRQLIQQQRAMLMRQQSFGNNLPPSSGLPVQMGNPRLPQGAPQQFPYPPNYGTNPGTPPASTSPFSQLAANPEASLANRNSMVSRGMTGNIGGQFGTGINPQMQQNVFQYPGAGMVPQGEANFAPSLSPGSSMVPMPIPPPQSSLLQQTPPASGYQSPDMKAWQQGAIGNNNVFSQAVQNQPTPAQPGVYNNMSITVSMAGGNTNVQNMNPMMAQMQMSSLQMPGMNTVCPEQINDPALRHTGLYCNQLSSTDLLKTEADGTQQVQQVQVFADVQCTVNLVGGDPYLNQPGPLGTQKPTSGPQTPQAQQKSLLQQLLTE
# assay explanation: SRC1 coactivator transcriptional activity inhibitors, confirmation, cell-based, luminescence, quadruplicate (AID 588820);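 note: 0% = DMSO wells and 100% = gossypol 36 µM treated wells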
# test conditions: HEK293 GAL4-SRC1 luciferase reporter, at 3.6 µM, active compounds read high
parameter: inhibition (%)

[[record]]
test_smiles = "CC1(C)CC(N2CCCC2)=CC(=[N+]2CCCCCC2)C1"
assay_system = "Nuclear receptor coactivator 1 (Homo sapiens) (UniProt Q15788)"
output_unit = "%"
number = -16.2

[[record]]
test_smiles = "O=C(/C(=C/c1ccc(Cl)cc1)c1nc2ccccc2[nH]1)c1cccs1"
assay_system = "Nuclear receptor coactivator 1 (Homo sapiens) (UniProt Q15788)"
output_unit = "%"
number = 22.4

[[record]]
test_smiles = "COc1cccc(/C=N/NC(=O)C(=O)Nc2ccccc2OC(F)(F)C(F)F)c1O"
assay_system = "Nuclear receptor coactivator 1 (Homo sapiens) (UniProt Q15788)"
output_unit = "%"
number = 33.3

[[record]]
test_smiles = "Cc1nc(N2CCC(C(N)=O)CC2)c2c(-c3cccs3)csc2n1"
assay_system = "Nuclear receptor coactivator 1 (Homo sapiens) (UniProt Q15788)"
output_unit = "%"
number = 34.9

[[record]]
test_smiles = "COc1ccc(-n2c(C)c([N+](=O)[O-])c3ccc(O)c(CN(C)C)c32)cc1"
assay_system = "Nuclear receptor coactivator 1 (Homo sapiens) (UniProt Q15788)"
output_unit = "%"
number = 73.1

